Origin of the recorded values: PubChem BioAssay (NCATS)

assay_remarks: High-throughput drug toxicity screening in the BPDCN cell line Cal-1 (AID 1224825);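 also: cells exposed to compounds for 48 h; 100% = DMSO and 0% = bortezomib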
assay_context: Cal-1 BPDCN cell viability, qHTS; at 45.8 µM (top of the series) unless noted
Excerpt: Blastic plasmacytoid dendritic cell neoplasm (BPDCN) is a rare, aggressive and largely incurable hematologic malignancy originating from plasmacytoid dendritic cells (pDCs). Although an initial response to chemotherapy is common, BPDCN prognosis is extremely poor and most patients relapse with drug-resistant disease leading to a median overall survival of ~1 year after diagnosis. […]
Returns: string. Value is 1 (yes) if measured viability (% of control) is below 3%, and 0 (no) if it is greater than or equal to it.

Just wondering, is viability (% of control) of C[C@]12CCC3c4ccc(O)cc4CCC3C1CCC2=O (some centres not stated) below 3%?
0 (no)

Just wondering, is viability (% of control) of Nc1nc(F)nc2c1ncn2[C@@H]1O[C@H](COP(=O)(O)O)[C@@H](O)[C@H]1O below 3%?
0 (no)

Just wondering, is viability (% of control) of O=C(NCc1ccccc1)c1csc(Nc2ccncn2)n1 below 3%?
1 (yes)

Just wondering, is viability (% of control) of CO[C@H]1C[C@@H]2CC[C@@H](C)[C@@](O)(O2)C(=O)C(=O)N2CCCC[C@@H]2C(=O)O[C@H]([C@H](C)C[C@@H]2CC[C@H](OC(=O)C(C)(CO)CO)[C@H](OC)C2)CC(=O)[C@H](C)C=C(C)[C@@H](O)[C@@H](OC)C(=O)[C@H](C)C[C@H](C)C=CC=CC=C1C below 3%?
0 (no)

Just wondering, is viability (% of control) of NC[C@@H]1O[C@@H](O[C@H]2[C@@H](O)[C@H](O[C@@H]3[C@@H](O)[C@@H](N)C[C@H](N)[C@H]3O[C@H]3O[C@H](CN)[C@@H](O)[C@@H](O)[C@H]3N)O[C@H]2CO)[C@H](N)[C@@H](O)[C@@H]1O below 3%?
0 (no)

Just wondering, is viability (% of control) of CO[C@H]1C[C@@H]2CC[C@@H](C)[C@@](O)(O2)C(=O)C(=O)N2CCCC[C@@H]2C(=O)O[C@H]([C@@H](C)C[C@@H]2CC[C@H](O)[C@H](OC)C2)CC(=O)[C@H](C)C=C(C)[C@@H](O)[C@@H](OC)C(=O)[C@H](C)C[C@H](C)C=CC=CC=C1C below 3%?
1 (yes)

Just wondering, is viability (% of control) of Cn1cc(C=C2C(=O)Nc3cccnc32)c2ccccc21 below 3%?
0 (no)
